# experimental-protocol: qHTS Assay for inhibitors of the human cytomegalovirus (HCMV); note: % is set by controls: 0 for no effect and ±100 for the full control effect
# condition-description: HFF cells, HCMV-luciferase reporter, 72 h; at 57.5 µM
The campaign covered roughly 410,000 compounds. About 18,000 (4.4%) were called active. Roughly 7% stayed inconclusive and do not appear here. Cut-off read from the data, not from the text of the source: active = activity change below about -60%; inconclusive = no clear call, values can overlap the other calls; inactive = above about -39%. This excerpt belongs to a sample that is enriched for actives.
Response enum: t = active, f = inactive

Prompt line: Returns: the outcome recorded for CN(C(=O)c1ccc2c(c1)N(Cc1cccc(Cl)c1)C(=O)c1ccccc1S2=O)C1CCCCC1 (stereo unspecified) in this assay.
Response line: t

Prompt line: Each molecule tested received a call. Report the one for `COc1ccc(-n2c(SCC(=O)Nc3ccc(Cl)c(C)c3)nc3n[nH]c(C)c3c2=N)cc1` .
Response line: f

Prompt line: Which outcome was entered for the molecule CC1=C(C(=O)Nc2ccccc2Cl)C(c2cccs2)n2ncnc2N1 (stereo unspecified) in this test?
Response line: f

* * *

# experimental-protocol: qHTS Assay for inhibitors of the human cytomegalovirus (HCMV); note: % is set by controls: 0 for no effect and ±100 for the full control effect
# condition-description: HFF cells, HCMV-luciferase reporter, 72 h; at 57.5 µM; active compounds read low
Out of some 410,000 compounds screened, about 18,000 (4.4%) were called active. Another 7% or so got no clear call; they are omitted. The full list was thinned out, with actives kept by preference.
metric: activity change, negative = inhibition (%)
I only need the number, in %, no unit after it.

Below, each entry is followed by its recorded activity change, negative = inhibition result.
# compound, activity change, negative = inhibition [%]
records = [
    ("CC(=O)Nc1ccc(C(=O)OCC(=O)Nc2ccc([N+](=O)[O-])cc2C(F)(F)F)cc1", -34.7),
    ("COc1ccccc1N(C)S(=O)(=O)c1ccc(Cl)c(C(=O)N2CCC(C(N)=O)CC2)c1", -15.9),
    ("Cc1ccccc1CNC(=O)CCc1cn(Cc2ccccc2C)c2ccccc12", -37.2),
    ("O=C(NCCc1ccccn1)c1cc(C(=O)C2CCCCC2)c[nH]1", 24.3),
    ("COc1ccc(CCNc2nc(-c3ccc(F)cc3)cc(C(F)(F)F)n2)cc1OC", -24.7),
    ("O=C(Nc1ccc(F)cc1F)c1ccc2c(=O)n3c(nc2c1)CCCCC3", 61.7),
]

Prompt line: Please supply the value of reported activity change, negative = inhibition for the item `COc1ccc(-c2cc(C(F)(F)F)nc(S(C)(=O)=O)n2)cc1OC`
Response line: -98.2

Prompt line: Answer with reported activity change, negative = inhibition of Cc1cc(C(=O)NC2CC(C)(C)Cc3c2cnn3-c2ccccc2)n[nH]1 (configuration not stated)
Response line: -4.62

Prompt line: Note activity change, negative = inhibition for the compound shown: `Nc1ncc(S(=O)(=O)Nc2ccc(OC(F)(F)F)cc2)cn1`
Response line: 4.7

Prompt line: Fill in activity change, negative = inhibition for record `CCOC(=O)c1c(C)oc2nc(C)nc(Nc3ccc(CC)cc3)c12`
Response line: 8.66

* * *

Measured activity change, negative = inhibition of individual entries
# experimental-protocol: qHTS Assay for inhibitors of the human cytomegalovirus (HCMV); note: % is set by controls: 0 for no effect and ±100 for the full control effect
# condition-description: HFF cells, HCMV-luciferase reporter, 72 h; at 57.5 µM; active compounds read low
In all, about 410,000 compounds went through this assay and about 18,000 (4.4%) were called active. Another 7% or so got no clear call; they are omitted. The sample as a whole holds a higher share of actives than the screen did.
Unit % implied. Number only.

Worked cases, activity change, negative = inhibition given:
# molecule, activity change, negative = inhibition, %
measured = [
    ("Cc1ccccc1S(=O)(=O)N[C@H]1CC[C@@]23CCCN2C(=O)CCC[C@H]3[C@H]1C", -19.4),
    ("Cc1cccc(OCCSc2nc3ccc(NC(=O)COc4ccccc4C)cc3s2)c1", -12.2),
    ("CCOC(=O)c1cc2c(=O)n3ccccc3nc2n(CC2CCCO2)c1=NC(=O)c1ccccc1Br (stereo not given)", 24.4),
    ("CCCCc1nn2c(=O)cc(COC(=O)c3ccccc3NC(=O)C(C)(C)C)nc2s1", -7.43),
    ("Cc1ccc(S(=O)(=O)c2c(Nc3cccc(Cl)c3)sc(C(=O)c3ccc4c(c3)OCO4)c2N)cc1", 9.79),
    ("C[C@H](CO)N1C[C@H](C)[C@H](CN(C)CC2CC2)Oc2ccc(NC(=O)CCN3CCOCC3)cc2C1=O", -26.7),
    ("CCCS(=O)(=O)N1CCC(n2c(C(F)(F)F)nc3cccnc32)CC1", -21.7),
    ("CCOc1ccc(CCN2C(=O)C(=O)N([C@@H](Cc3ccc(O)cc3)CN3CCC[C@H]3CN3C(=O)C(=O)NC[C@@H]3CC(C)C)C[C@@H]2Cc2ccccc2)cc1", -26.1),
]

Prompt line: Given the molecule `Cc1c(C(=O)OC(C)C)sc(NC(=O)c2cccnc2)c1C#N` , write its reported activity change, negative = inhibition.
Response line: 4.66

* * *

# experimental-protocol: qHTS Assay for inhibitors of the human cytomegalovirus (HCMV); note: % is set by controls: 0 for no effect and ±100 for the full control effect
# condition-description: HFF cells, HCMV-luciferase reporter, 72 h; at 57.5 µM
The whole screen tested about 410,000 compounds, of which about 18,000 (4.4%) were called active. Not shown: some 7% with an inconclusive outcome. No stated cut-off is given here; in the data, active means activity change below about -60%; inconclusive means no clear call, values can overlap the other calls; inactive means above about -39%. This excerpt belongs to a sample that is enriched for actives.
Give your call using only these classes: yes (1) (active), no (0) (inactive)

Prompt line: Each compound tested received a call. Report the one for `CSc1nc(-c2ccccc2Cl)nc2c1Cc1c(CO)cnc(C)c1O2` .
Response line: no (0)

Prompt line: Returns: the outcome recorded for `CC(C)NC(=O)c1nnc2n1CCN(C(=O)C1(c3ccc(Cl)cc3)CCCC1)C2` in this assay.
Response line: no (0)

Prompt line: Would you mind telling me which call this test gave `Cc1ccc(C(=O)OCC(=O)Nc2ccc(Cl)cn2)cc1S(=O)(=O)N1CCOCC1` ?
Response line: no (0)

Prompt line: So what was the verdict on `Cc1cccc(NC(=O)c2nnn(CC(=O)Nc3ccc(C(C)C)cc3)c2N)c1C` in this test?
Response line: no (0)

Prompt line: I'd appreciate the recorded outcome for `CCN(CC)CCNC(=O)c1cc2c(=O)oc3ccc(C)cc3c2s1` from this test.
Response line: no (0)

Prompt line: Answer briefly: the call reported for `NC(=S)NN=Cc1ccc(OC(=O)COc2cc(Cl)c(Cl)cc2Cl)cn1` in this assay.
Response line: yes (1)

Prompt line: # lookup: test call for `CCc1cc2c(-c3ccccc3)cc(=O)oc2c2c1OCN(Cc1ccc(C)cc1)C2`
Response line: no (0)

Prompt line: How was C=CCC(C(=O)c1ccccc1)[N+](C)(C)CC=C (stereo not given) classified in this test?
Response line: no (0)

Prompt line: For `Cc1ccc(NC(=O)COC(=O)C2CC2)cc1S(=O)(=O)N1CCOCC1` , what call appears in the results of this test?
Response line: no (0)

Prompt line: Would you mind telling me which call this test gave `COc1ccc2c(c1)C(C)=CC(C)(C)N2C(=O)CNCc1ccc2c(c1)OCO2` ?
Response line: no (0)

* * *

# experimental-protocol: qHTS Assay for inhibitors of the human cytomegalovirus (HCMV); note: % is set by controls: 0 for no effect and ±100 for the full control effect
# condition-description: HFF cells, HCMV-luciferase reporter, 72 h; at 57.5 µM
Among all 410,000 compounds or so, about 18,000 (4.4%) were called active. Another 7% or so got no clear call; they are omitted. Rule as the data show it: active = activity change below about -60%; inconclusive = no clear call, values can overlap the other calls; inactive = above about -39%. For the sample, actives were picked, then their nearest neighbours and some compounds at random.
Hello, when you answer, please use one of the following outcomes: yes (active), no (inactive)

Reference set (10 entries):
# molecule, group
rows = [
    ("O=C(Nc1ccc2ccccc2c1)/C(=C/c1cccc(Br)c1)NC(=O)c1ccco1", "yes"),
    ("CCOC(=O)c1[nH]cnc1C(=O)Nc1ccccc1C", "no"),
    ("O=C(Cc1ccc(Cl)cc1)NCC(c1cccs1)S(=O)(=O)c1ccc(Cl)cc1 (configuration not stated)", "no"),
    ("CCOC(=O)c1c(-c2cccc(N)c2)cn2ccccc12", "no"),
    ("Cc1ccc(NC(=O)C2CCC(C(C)(C)C)CC2)cc1S(=O)(=O)N1CCOCC1 (configuration not stated)", "no"),
    ("Cc1cc(C)c(C#N)c(Nc2cccc(Br)c2)n1", "no"),
    ("CCOC(=O)c1c(-c2cccc(C)c2)csc1NC(=O)c1c(-c2ccccc2)noc1C", "yes"),
    ("COc1ccc(-c2nn(CC(=O)Nc3ccccc3F)c3c2cnc2ccc(F)cc23)cc1", "no"),
    ("COc1cc(NC(=O)c2noc3c2CSc2ccccc2-3)cc(OC)c1OC", "no"),
    ("O=c1nc(N2CCOCC2)nc2n1CCO2", "no"),
]

Prompt line: Outcome? CC(C)(C)C1CCC(C(=O)Nc2cccnc2)CC1 (configuration not stated)
Response line: yes

Prompt line: Please share the test call associated with `O=C(Nc1cccc(C(=O)O)c1)/C(=C\c1ccccc1)NC(=O)c1ccc(Br)o1` .
Response line: no
